# assay target: c-Met kinase (Homo sapiens)
# Construct: recombinant N-terminal 6×His-tagged c-Met kinase domain construct expressed from baculovirus; 6xHis (N); made in house
# Sequence (P08581 1078-1345 limits assumed): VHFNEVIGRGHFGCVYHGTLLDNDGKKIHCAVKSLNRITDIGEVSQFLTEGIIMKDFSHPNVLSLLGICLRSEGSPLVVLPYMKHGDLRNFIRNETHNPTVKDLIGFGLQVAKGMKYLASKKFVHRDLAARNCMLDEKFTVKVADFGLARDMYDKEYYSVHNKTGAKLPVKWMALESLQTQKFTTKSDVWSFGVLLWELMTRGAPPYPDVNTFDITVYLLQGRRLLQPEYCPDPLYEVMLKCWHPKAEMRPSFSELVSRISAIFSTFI
# method summary: c-Met kinase assay (33P incorporation into Poly(Glu-Tyr))
# Type: biochemical
# reported conditions: 500 nM test compound
readout kind: inhibition at 0.5 µM (%)

CCOC(=O)CCc1c(/C=C2\C(=O)Nc3ccc(NC(=O)c4ccc(OC)cc4)cc32)[nH]c2c1C(=O)CCC2 [DCB-70141]: -1.2

(A) CCOC(=O)CCc1c(/C=C2\C(=O)Nc3ccc(NCc4ccc(OC)cc4)cc32)[nH]c2c1C(=O)CCC2 [DCB-70175]
(B) CCOC(=O)CCc1c(C=C2C(=S)Nc3cc(Br)ccc32)[nH]c2c1C(=O)CCC2 [DCB-70085]
## Task I'd appreciate it if you could identify which of A and B has the greater inhibition at 0.5 µM. Could you answer with the label of the item you picked?
## Result B
(B: 25.1%, A: 17.3%)

---

# assay target: Aurora B kinase (Homo sapiens)
# Construct: purchased Cell signaling
# Sequence (Q96GD4 whole entry): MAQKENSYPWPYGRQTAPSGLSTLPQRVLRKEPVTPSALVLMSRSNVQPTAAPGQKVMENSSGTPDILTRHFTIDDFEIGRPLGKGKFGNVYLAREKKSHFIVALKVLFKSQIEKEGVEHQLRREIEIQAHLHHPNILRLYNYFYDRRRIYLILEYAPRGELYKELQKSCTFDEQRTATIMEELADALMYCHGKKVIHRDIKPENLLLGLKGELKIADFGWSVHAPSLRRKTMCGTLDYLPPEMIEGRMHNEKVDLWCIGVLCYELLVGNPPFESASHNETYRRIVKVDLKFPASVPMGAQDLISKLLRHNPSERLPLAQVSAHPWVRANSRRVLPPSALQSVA
# method summary: Aurora B kinase assay ([γ-33P]ATP, CHOCKtide substrate)
# Type: biochemical
# reported conditions: 1.0 μM test compound
readout kind: inhibition at 1 µM (%)

Some compounds with recorded inhibition at 1 µM:
CCN(CC)CCNC(=O)CCc1c(/C=C2\C(=O)Nc3ccc(S(=O)(=O)Cc4c(Cl)cccc4Cl)cc32)[nH]c2c1C(=O)CCC2: 43.7
O=C(O)CCc1c(/C=C2\C(=O)Nc3cc(Br)ccc32)[nH]c2c1C(=O)CCC2: 6

(I) CC(=O)c1c(C)[nH]c(/C=C2\C(=O)Nc3ccc(S(=O)(=O)Cc4c(Cl)cccc4Cl)cc32)c1CCC(=O)O
(II) COc1cc(-c2ccc3c(c2)/C(=C/c2[nH]c4c(c2CCC(=O)O)C(=O)CCC4)C(=O)N3)ccc1O
## Task For this pair, I and II , which shows a numerically higher inhibition at 1 µM? # reply format: chosen label
## Result II
(II: 12.4%, I: 7.3%)

---

# assay target: Flt3 kinase (Homo sapiens, UniProt P36888)
# Construct: recombinant N-terminal 6×His-tagged Flt3 kinase domain construct expressed from baculovirus; 6xHis (N); made in house
# Sequence (P36888 610-943 limits assumed): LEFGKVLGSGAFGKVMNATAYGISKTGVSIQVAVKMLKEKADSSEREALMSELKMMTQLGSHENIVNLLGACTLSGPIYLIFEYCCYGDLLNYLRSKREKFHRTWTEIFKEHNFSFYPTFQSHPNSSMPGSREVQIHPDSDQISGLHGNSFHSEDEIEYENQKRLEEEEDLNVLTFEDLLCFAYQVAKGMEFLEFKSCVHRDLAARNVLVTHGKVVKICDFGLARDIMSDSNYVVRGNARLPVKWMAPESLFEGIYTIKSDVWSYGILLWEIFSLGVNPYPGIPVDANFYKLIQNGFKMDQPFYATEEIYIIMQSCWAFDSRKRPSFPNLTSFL
# method summary: Flt3 kinase assay (33P incorporation into Poly(Glu-Tyr))
# Format: biochemical
# reported conditions: 100 nM test compound; read-out: Inhibition at 100 nM (%) Flt-3
readout kind: inhibition at 0.1 µM (%)

Reference set (4 entries):
COc1cc(-c2ccc3c(c2)NC(=O)/C3=C\c2[nH]c3c(c2CCC(=O)O)C(=O)CCC3)ccc1O: 35.1
CCOC(=O)CCc1c(/C=C2\C(=O)Nc3ccc(NC(=O)c4ccc([N+](=O)[O-])cc4)cc32)[nH]c2c1C(=O)CCC2: 5.5
O=C(O)CCc1c(/C=C2\C(=O)Nc3ccc([N+](=O)[O-])cc32)[nH]c2c1C(=O)CCC2: 74.7
CCOC(=O)CCc1c(/C=C2\C(=O)Nc3ccc(-c4cc5ccccc5s4)cc32)[nH]c2c1C(=O)CCC2: 9.6

(A) CCOC(=O)CCc1c(/C=C2\C(=O)Nc3ccc(S(=O)(=O)NC)cc32)[nH]c2c1C(=O)CCC2
(B) CCOC(=O)CCc1c(/C=C2\C(=O)Nc3cc(-c4ccc(O)cc4)ccc32)[nH]c2c1C(=O)CCCC2
## Task Could you check which of A and B has a smaller value for inhibition at 0.1 µM? Identify your pick by its label.
## Result B

(a) O=C(O)CCc1c(/C=C2\C(=O)Nc3ccc(F)cc32)[nH]c2c1C(=O)CCC2
(b) CCOC(=O)CCc1c(/C=C2\C(=O)Nc3cc(-c4ccc(F)cc4)ccc32)[nH]c2c1C(=O)CCC2
(c) CCOC(=O)CCc1c(/C=C2\C(=O)Nc3ccc(NC(=O)Nc4ccc(OC)cc4)cc32)[nH]c2c1C(=O)CCC2
## Task Endpoint returns the given compounds ordered by ascending inhibition at 0.1 µM. Hello, could you send the labels back in the order asked? Thank you.
## Result b, c, a
(b: 4.8%, c: 22.5%, a: 86.5%)
